# System: SNB-19 (CNS cancer)
# protocol_summary: NCI-60 screen (SRB, 48 h)
# conditions_used: Homo sapiens, SNB-19, 48 h, read-out: TGI
measurement_name: IC (TGI) (µM)
Reply numerically in µM, unit not repeated.

Some compounds with recorded IC (TGI):
compound	measurement_unit	IC (TGI)
C=C(C)[C@@H]1CC[C@]2(C)[C@H](CC=C3[C@@H]4[C@@H](C)[C@H](C)CC[C@]4(CO)CC[C@]32C)[C@@]1(C)CCCN [Compound 19]	µM	8.11
C=C(C)[C@@H]1CC[C@]2(C(=O)N[C@H](CO)Cc3ccccc3)CC[C@]3(C)[C@H](CC[C@@H]4[C@@]5(C)CCCNC(C)(C)[C@@H]5CC[C@]43C)[C@@H]12 [Compound 11]	µM	2.72
Cc1ccc(S(=O)(=O)OC[C@@]2(C)CC[C@]3(C)CC[C@]4(C)C(=C3C2)C=C[C@@H]2[C@@]3(C)CCCNC(C)(C)[C@@H]3CC[C@]24C)cc1 [Compound 16]	µM	3.62

Req: // lookup IC (TGI) for C[C@H]1[C@H](C)CC[C@]2(C(=O)Nc3ccc4ncccc4c3)CC[C@]3(C)C(=CC[C@@H]4[C@@]5(C)CCCNC(C)(C)[C@@H]5CC[C@]43C)[C@H]12 [Compound 14]
Resp: 3.4

Req: Then what about the compound Cc1ccc(S(=O)(=O)OC[C@]23CCC(C)(C)C[C@H]2C2=CC[C@@H]4[C@@]5(C)CCCNC(C)(C)[C@@H]5CC[C@@]4(C)[C@]2(C)CC3)cc1 [Compound 15] ?
Resp: 3.54

Req: Then what about the compound C=C(C)C1CCC2(CO)CCC3(C)C(CCC4C5(C)CCCNC(C)(C)C5CCC43C)C12 (centres unmarked) [Compound 1, Azepanobetulin] ?
Resp: 3.2

Req: Then what about the compound CC1(C)NCCC[C@]2(C)[C@H]3C=CC4=C5C[C@@](C)(CO)CC[C@]5(C)CC[C@@]4(C)[C@]3(C)CC[C@@H]12 [Compound 6, azepano-glycyrrhetol-diene] ?
Resp: 25.3

Req: Then what about the compound C=C(C)[C@@H]1CCC=C2CC[C@]3(C)[C@H](CC[C@@H]4[C@@]5(C)CCCNC(C)(C)[C@@H]5CC[C@]43C)[C@H]21 [Compound 8] ?
Resp: 3.44

Req: Then what about the compound C=C(C)[C@@H]1CC[C@]2(C)[C@H](C=CC3=C4C[C@@](C)(CO)CC[C@]4(C)CC[C@]32C)[C@@]1(C)CCCN [Compound 20] ?
Resp: 3.17

Req: Then what about the compound C=C(C)[C@@H]1CC[C@]2(COS(=O)(=O)c3ccc(C)cc3)CC[C@]3(C)[C@@H](CC[C@@H]4[C@@]5(C)CCCNC(C)(C)[C@@H]5CC[C@]43C)[C@@H]12 [Compound 12] ?
Resp: 3.68

Req: Then what about the compound CC1(C)CC[C@]2(CO)CC[C@]3(C)C(=CC[C@@H]4[C@@]5(C)CCCNC(C)(C)[C@@H]5CC[C@]43C)[C@@H]2C1 [Compound 3, azepanoerythrodiol] ?
Resp: 2.61

----------
So I've got GI50 readings for UACC-62 (Melanoma), take a look.
Reply numerically in nM, unit not repeated.

Some molecules with recorded GI50:
molecule	measurement_unit	GI50
C[C@H]1[C@H](C)CC[C@]2(CO)CC[C@]3(C)C(=CC[C@@H]4[C@@]5(C)CCCNC(C)(C)[C@@H]5CC[C@]43C)[C@H]12 [Compound 4, azepanouvaol]	nM	1850
C=C(C)C1CCC2(CO)CCC3(C)C(CCC4C5(C)CCCNC(C)(C)C5CCC43C)C12 (stereo not drawn) [Compound 1, Azepanobetulin]	nM	1820

Continue with the next molecule.
Req: // lookup GI50 for Cc1ccc(S(=O)(=O)OC[C@@]2(C)CC[C@]3(C)CC[C@]4(C)C(=C3C2)C=C[C@@H]2[C@@]3(C)CCCNC(C)(C)[C@@H]3CC[C@]24C)cc1 [Compound 16]
Resp: 1840

----------
Reported CC50 values follow for various molecules
# System: 786-0 (Renal cancer)
# protocol_summary: NCI-60 screen (SRB, 48 h)
# conditions_used: Homo sapiens, 786-0, read-out: LC50
Reply numerically in µM, unit not repeated.

Some molecules with recorded CC50:
molecule	recorded_value
C=C(C)C1CCC2(CO)CCC3(C)C(CCC4C5(C)CCCNC(C)(C)C5CCC43C)C12 (stereo not shown) [Compound 1, Azepanobetulin]	6.19
CC1(C)CC[C@]23CC[C@]4(C)[C@H](CC[C@@H]5[C@@]6(C)CCCNC(C)(C)[C@@H]6CC[C@]54C)[C@H]2[C@H]1OC3 [Compound 7, Azepanoallobetulin]	6.18
C=C(C)[C@@H]1CC[C@]2(C)[C@H](CC=C3[C@@H]4[C@@H](C)[C@H](C)CC[C@]4(CO)CC[C@]32C)[C@@]1(C)CCCN [Compound 19]	2.97

Continue with the next molecule.
Req: // lookup CC50 for C=C(C)[C@@H]1CC[C@]2(C)[C@H](C=CC3=C4C[C@@](C)(CO)CC[C@]4(C)CC[C@]32C)[C@@]1(C)CCCN [Compound 20]
Resp: 7.04

----------
# System: MCF7 (Breast cancer)
# protocol_summary: NCI-60 screen (SRB, 48 h)
# conditions_used: Homo sapiens, MCF7, read-out: LC50
Reported CC50 values follow for various compounds
Reply numerically in µM, unit not repeated.

compound	measurement_unit	CC50
C=C(C)[C@@H]1CCC=C2CC[C@]3(C)[C@H](CC[C@@H]4[C@@]5(C)CCCNC(C)(C)[C@@H]5CC[C@]43C)[C@H]21	µM	6.22
C=C(C)[C@@H]1CC[C@]2(C)[C@H](C=CC3=C4C[C@@](C)(CO)CC[C@]4(C)CC[C@]32C)[C@@]1(C)CCCN	µM	7.23

Req: Kindly state the measured CC50 obtained for C=C(C)C1CCC2(CO)CCC3(C)C(CCC4C5(C)CCCNC(C)(C)C5CCC43C)C12 (stereo not drawn) with MCF7 (Breast cancer).
Resp: 5.94

----------
Reported IC (TGI) values follow for various compounds
# Tested on: Leukemia subpanel
# protocol_summary: cells
# conditions_used: Homo sapiens, 48 h, read-out: TGI MG_MID
Reply numerically in µM, unit not repeated.

Some compounds with recorded IC (TGI):
C[C@H]1[C@H](C)CC[C@]2(C(=O)Nc3ccc4ncccc4c3)CC[C@]3(C)C(=CC[C@@H]4[C@@]5(C)CCCNC(C)(C)[C@@H]5CC[C@]43C)[C@H]12 3.63
C=C(C)[C@@H]1CCC=C2CC[C@]3(C)[C@H](CC[C@@H]4[C@@]5(C)CCCNC(C)(C)[C@@H]5CC[C@]43C)[C@H]21 5.18

Continue with the next compound.
Req: // lookup IC (TGI) for CC1(C)NCCC[C@]2(C)[C@H]3C=CC4=C5C[C@@](C)(CO)CC[C@]5(C)CC[C@@]4(C)[C@]3(C)CC[C@@H]12
Resp: 10.2

----------
Reported EC50 values follow for various molecules
# Test system: A375 (malignant melanoma)
# protocol_summary: SRB cytotoxicity assay, 72 h
# Assay type: cell-based, human
# conditions_used: Homo sapiens, A-375, 72 h, A375, 72 h, cut-off 30 µM; read-out: EC50
Reply numerically in nM, unit not repeated.

Req: // lookup EC50 for C=C(C)C1CCC2(CO)CCC3(C)C(CCC4C5(C)CCCNC(C)(C)C5CCC43C)C12 (stereo not shown) [Compound 1, Azepanobetulin]
Resp: 2520

Req: Then what about the molecule CC(C)=C1CCC=C2CC[C@]3(C)[C@H](CC[C@@H]4[C@@]5(C)CCCNC(C)(C)[C@@H]5CC[C@]43C)[C@H]21 [Compound 9] ?
Resp: 1710

Req: Then what about the molecule C=C(C)[C@@H]1CC[C@]2(C)[C@H](CC=C3[C@@H]4CC(C)(C)CC[C@]4(CO)CC[C@]32C)[C@@]1(C)CCCN [Compound 18] ?
Resp: 3380

Req: Then what about the molecule C=C(C)[C@@H]1CC[C@]2(C(=O)NC3CCCCC3)CC[C@]3(C)[C@H](CC[C@@H]4[C@@]5(C)CCCNC(C)(C)[C@@H]5CC[C@]43C)[C@@H]12 [Compound 10] ?
Resp: 2180

Req: Then what about the molecule CC1(C)NCCC[C@]2(C)[C@H]3CC(=O)[C@H]4[C@@H]5C[C@@](C)(CO)CC[C@]5(C)CC[C@@]4(C)[C@]3(C)CC[C@@H]12 [Compound 17] ?
Resp: 6350

Req: Then what about the molecule Cc1ccc(S(=O)(=O)OC[C@]23CCC(C)(C)C[C@H]2C2=CC[C@@H]4[C@@]5(C)CCCNC(C)(C)[C@@H]5CC[C@@]4(C)[C@]2(C)CC3)cc1 [Compound 15] ?
Resp: 2360

Req: Then what about the molecule C=C(C)[C@@H]1CC[C@]2(COS(=O)(=O)c3ccc(C)cc3)CC[C@]3(C)[C@@H](CC[C@@H]4[C@@]5(C)CCCNC(C)(C)[C@@H]5CC[C@]43C)[C@@H]12 [Compound 12] ?
Resp: 2030

Req: Then what about the molecule CC1(C)NCCC[C@]2(C)[C@H]3CC=C4[C@@H]5C[C@@](C)(CO)CC[C@]5(C)CC[C@@]4(C)[C@]3(C)CC[C@@H]12 [Compound 5, azepano-glycyrretol] ?
Resp: 5690
